Source: ChEMBL document CHEMBL4346697

# collection of pIC50 values tested on UniProtKB P11387
Interpret pIC50 as the negative base-10 log of the concentration measured in mol/L.

NC[C@@H]1CCN(c2ccc3c(=O)c(C(=O)O)cn(Cc4ccc(-c5ccccc5)cc4)c3c2)C1
4.21
CNC(=O)c1cn(Cc2ccc(-c3ccccc3)cc2)c2c(OC)c(N3CC[C@@H](CN)C3)c(F)cc2c1=O
4.09

What the record says about CNCCCNc1c(F)cc2c(=O)c(C(=O)O)cn(Cc3ccc(-c4ccccc4)cc3)c2c1OC : pIC50 is 4.00

What the record says about O=C(O)c1cn(Cc2ccc(-c3ccccc3)cc2)c2cc(NC[C@H]3CCNC3)c(F)cc2c1=O : pIC50 is 4.00

What the record says about NC[C@@H]1CCN(c2cc3c(cc2F)c(=O)c(C(=O)O)cn3Cc2ccc(-c3ccc(F)cc3)cc2)C1 : pIC50 is 4.16

What the record says about CN[C@@H]1CCN(c2cc3c(cc2F)c(=O)c(C(=O)O)cn3Cc2ccc(-c3ccccc3)cc2)C1 : pIC50 is 4.46

What the record says about NC[C@@H]1CCN(c2cc3c(cc2F)c(=O)c(C(=O)O)cn3Cc2ccc(-c3ccccc3)cc2)C1 : pIC50 is 4.81

###

- Assay system: DNA topoisomerase 1 (Homo sapiens) (UniProt P11387)
- Sequence (P11387 whole entry): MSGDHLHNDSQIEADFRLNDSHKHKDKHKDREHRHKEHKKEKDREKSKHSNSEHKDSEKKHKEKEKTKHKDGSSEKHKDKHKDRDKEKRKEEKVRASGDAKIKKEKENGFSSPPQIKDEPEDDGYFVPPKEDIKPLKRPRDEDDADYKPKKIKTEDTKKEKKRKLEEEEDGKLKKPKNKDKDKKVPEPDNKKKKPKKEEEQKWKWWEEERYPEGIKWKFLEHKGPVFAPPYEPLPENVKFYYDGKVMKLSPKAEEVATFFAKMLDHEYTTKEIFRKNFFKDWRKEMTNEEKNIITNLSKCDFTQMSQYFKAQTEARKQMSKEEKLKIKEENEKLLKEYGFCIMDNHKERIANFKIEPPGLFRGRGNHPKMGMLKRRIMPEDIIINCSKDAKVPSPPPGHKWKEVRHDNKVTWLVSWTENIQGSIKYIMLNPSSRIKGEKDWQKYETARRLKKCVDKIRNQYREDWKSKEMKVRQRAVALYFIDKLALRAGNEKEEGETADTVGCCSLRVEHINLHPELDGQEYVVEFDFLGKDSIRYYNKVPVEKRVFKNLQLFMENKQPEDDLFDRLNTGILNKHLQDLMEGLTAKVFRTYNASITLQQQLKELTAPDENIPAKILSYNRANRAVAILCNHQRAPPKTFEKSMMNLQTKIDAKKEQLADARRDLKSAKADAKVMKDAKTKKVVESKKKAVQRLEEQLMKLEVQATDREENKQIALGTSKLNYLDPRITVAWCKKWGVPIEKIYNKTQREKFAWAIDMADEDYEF
- Test method notes: Inhibition of human topoisomerase 1 at 200 uM using supercoiled pBR322 plasmid DNA as substrate after 15 mins by ethidium bromide staining based agarose gel electrophoresis method relative to control
Activity calls are given as the source filed them. No cut-off for these calls is given here.
Assay metric: inhibition

COc1c(NCCN)c(F)cc2c(=O)c(C(=O)O)cn(Cc3ccc(-c4ccccc4)cc3)c12
10%
CNC(=O)c1cn(Cc2ccc(-c3ccccc3)cc2)c2c(OC)c(NC)c(F)cc2c1=O
inactive
COc1c(N2CC[C@@H](CN)C2)c(F)cc2c(=O)c(C(=O)O)cn(Cc3ccc(-n4cccn4)cc3)c12
10%
NC[C@@H]1CCN(c2cc3c(cc2F)c(=O)c(C(=O)O)cn3Cc2nc(-c3ccncc3)no2)C1
10%
CC(c1nc(-c2ccncc2)no1)n1cc(C(=O)O)c(=O)c2cc(F)c(N3CC[C@@H](CN)C3)cc21 (stereo partly drawn)
10%
CNCCNc1cc2c(cc1F)c(=O)c(C(=O)O)cn2Cc1ccc(-c2ccccc2)cc1
10%
CNCCCCNc1c(F)cc2c(=O)c(C(=O)O)cn(Cc3ccc(-c4ccccc4)cc3)c2c1OC
10%
COc1c(N2CC[C@@H](CO)C2)c(F)cc2c(=O)c(C(=O)O)cn(Cc3ccc(-c4ccccc4)cc3)c12
10%

What the record says about O=C(O)c1cn(Cc2ccc(-n3cccn3)cc2)c2cc(NC[C@@H]3CCNC3)c(F)cc2c1=O : inhibition is 10%

What the record says about COc1c(F)c(F)cc2c(=O)c(C(=O)O)cn(Cc3ccc(-c4ccccc4)cc3)c12 : inhibition is inactive

What the record says about COc1c(N2CC[C@@H](C(N)=O)C2)c(F)cc2c(=O)c(C(=O)O)cn(Cc3ccc(-c4ccccc4)cc3)c12 : inhibition is 10%

What the record says about CNC[C@@H]1CCN(c2cc3c(cc2F)c(=O)c(C(=O)O)cn3Cc2ccc(-n3cccn3)cc2)C1 : inhibition is 10%

What the record says about CNCCNc1c(F)cc2c(=O)c(C(=O)O)cn(Cc3ccc(-c4ccccc4)cc3)c2c1OC : inhibition is 10%
